# tested-target: UniProt:P40763
# test-details: Quantitation of STAT3 degradation in A549 cells by Western blot
# Format: cell-based
# Design: expressed in transfected cells; host or cells: A549
# experimental-parameters: read-out: A549 DC50, 24 hours, tested up to 30 μM or 10 μM
metric-name: DC50

## Input Dear colleague, I am looking for the recorded DC50 of the following molecule: CCCC[C@H](NC(=O)/C=C(\C)c1ccc(C(F)(F)P(=O)(OCOC(=O)C(C)(C)C)OCOC(=O)C(C)(C)C)cc1)C(=O)N1C[C@H]2C[C@H]2[C@H]1C(=O)N[C@@H](CCC(N)=O)[C@@H](C)OCc1ccc(CCCNC(=O)COCCOCCCc2ccc3c(c2)n(C)c(=O)n3C2CCC(=O)NC2=O)cc1 (stereo partly drawn)
## Output > 30 µM

## Input Dear colleague, I am looking for the recorded DC50 of the following molecule: Cc1ncsc1-c1ccc(CNC(=O)[C@@H]2C[C@@H](O)CN2C(=O)[C@@H](NC(=O)CCCCc2cccc(CO[C@H](C)[C@H](CCC(N)=O)NC(=O)[C@@H]3Cc4cccc5c4N3C(=O)[C@@H](NC(=O)c3cc4cc(C(=O)P(=O)(O)O)ccc4[nH]3)CC5)c2)C(C)(C)C)cc1
## Output < 30 µM

# context switch: different molecule, same DC50
## Input Dear colleague, I am looking for the recorded DC50 of the following molecule: C/C(=C\C(=O)N[C@H]1CCc2cccc3c2N(C1=O)[C@H](C(=O)N[C@@H](CCC(N)=O)[C@@H](C)OCc1ccc(CCCC(=O)N[C@H](C(=O)N2C[C@H](O)C[C@H]2C(=O)NCc2ccc(-c4scnc4C)cc2)C(C)(C)C)cc1)C3)c1ccc(C(F)(F)P(=O)(OCOC(=O)C(C)(C)C)OCOC(=O)C(C)(C)C)cc1
## Output < 30 µM

====

// values below are reported DC50
# tested-target: STAT3 (Homo sapiens)
# Sequence (P40763 whole entry): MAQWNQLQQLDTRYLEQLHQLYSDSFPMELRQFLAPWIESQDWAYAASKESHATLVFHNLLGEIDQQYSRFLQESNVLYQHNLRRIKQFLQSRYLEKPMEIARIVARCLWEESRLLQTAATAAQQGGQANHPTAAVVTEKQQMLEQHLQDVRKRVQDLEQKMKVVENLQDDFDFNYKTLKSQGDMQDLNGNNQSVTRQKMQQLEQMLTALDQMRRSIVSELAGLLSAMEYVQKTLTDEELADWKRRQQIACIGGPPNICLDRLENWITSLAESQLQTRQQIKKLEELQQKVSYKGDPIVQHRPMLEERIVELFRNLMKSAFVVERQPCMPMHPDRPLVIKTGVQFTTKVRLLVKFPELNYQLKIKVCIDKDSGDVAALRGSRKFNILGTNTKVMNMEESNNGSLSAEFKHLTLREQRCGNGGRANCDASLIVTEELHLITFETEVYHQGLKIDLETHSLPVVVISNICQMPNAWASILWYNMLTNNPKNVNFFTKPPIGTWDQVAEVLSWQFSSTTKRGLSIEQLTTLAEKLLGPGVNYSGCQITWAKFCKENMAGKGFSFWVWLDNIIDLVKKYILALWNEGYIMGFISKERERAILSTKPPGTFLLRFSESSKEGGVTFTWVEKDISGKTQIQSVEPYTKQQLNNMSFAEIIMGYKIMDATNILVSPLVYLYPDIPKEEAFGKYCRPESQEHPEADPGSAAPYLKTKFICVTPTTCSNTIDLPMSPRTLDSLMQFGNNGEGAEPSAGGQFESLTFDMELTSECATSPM
# test-details: STAT3 HiBiT degradation assay in transfected A549 cells
# Type: cell-based
# Set-up: expressed in transfected cells; host or cells: A549
# experimental-parameters: A549, 24 h; read-out: STAT3 HiBiT A549 degradation 24 h: Average external-Abs DC50

## Input Dear colleague, I am looking for the recorded DC50 of the following compound: Cc1ncsc1-c1ccc(CNC(=O)[C@@H]2C[C@@H](O)CN2C(=O)[C@@H](NC(=O)C2(CCCc3ccc(CO[C@H](C)[C@H](CCC(N)=O)NC(=O)[C@@H]4Cc5cccc6c5N4C(=O)[C@@H](NC(=O)c4cc5cc(C(=O)P(=O)(O)O)ccc5[nH]4)CC6)cc3)CC2)C(C)(C)C)cc1 [Compound I-223]
## Output 0.1 to 1 µM

Further cases:
## Input Dear colleague, I am looking for the recorded DC50 of the following compound: Cn1c(=O)n(C2CCC(=O)NC2=O)c2ccc([C@H]3CC[C@H](CCC(=O)N4CC[C@H]5CC[C@@H](C(=O)N[C@@H](CCC(N)=O)C(=O)NC(c6ccccc6)c6ccccc6)N5C(=O)[C@@H](NC(=O)c5cc6cc(C(=O)P(=O)(O)O)ccc6[nH]5)C4)CC3)cc21 (stereo partly drawn) [Compound I-278]
## Output 0.1 to 1 µM

## Input Dear colleague, I am looking for the recorded DC50 of the following compound: Cc1ncsc1-c1ccc([C@H](C)NC(=O)[C@@H]2C[C@@H](O)CN2C(=O)[C@@H](NC(=O)CCCc2cccc(NC(=O)[C@H](CCC(N)=O)NC(=O)[C@@H]3Cc4cccc5c4N3C(=O)[C@@H](NC(=O)c3cc4cc(C(=O)P(=O)(O)O)ccc4[nH]3)CC5)c2Cl)C(C)(C)C)cc1 [Compound I-247]
## Output 0.01 to 0.1 µM
